Readings of Bliss excess for the listed compounds
# Tested on: JSC-1 (B-Cell Non-Hodgkin's Lymphoma)
# protocol.description: Bliss excess, mean over the matrix (fraction); higher = more synergy

Some compounds with recorded Bliss excess:
Cc1cc2ncnn2cc1Nc1ncc2c(n1)n(C1CCOCC1)c(=O)n2C [AZD7648] + CCN(CCO)CCCOc1ccc2c(Nc3cc(CC(=O)Nc4cccc(F)c4)[nH]n3)ncnc2c1 [AZD2811] (first compound max 10 µM, 7x7, partner max 1 µM) = 0.0813
Cc1cc2ncnn2cc1Nc1ncc2c(n1)n(C1CCOCC1)c(=O)n2C [AZD7648] + CN(C)CCCOc1ccc(-c2ccc3ncc4c(c3c2)n(C2CCOCC2)c(=O)n4C)cn1 [AZD0156] (first compound max 10 µM, 7x7, partner max 1 µM) = 0.0412
Cc1c2c(nn1C)CSCc1cc(n(C)n1)CSc1cc(c3ccccc3c1)OCCCc1c(C(=O)O)n(C)c3c-2c(Cl)ccc13 [AZD5991] + C1CN(CCC1(C(=O)N[C@@H](CCO)C2=CC=C(C=C2)Cl)N)C3=NC=NC4=C3C=CN4 [Capivasertib] (first compound max 1 µM, 7x7, partner max 3 µM) = -0.0085
NC1(C(=O)N[C@@H](CCO)c2ccc(Cl)cc2)CCN(c2ncnc3[nH]ccc23)CC1 [Capivasertib] + C[C@@H]1COCCN1C2=NC(=NC(=C2)C3(CC3)[S@](=N)(=O)C)C4=C5C=CNC5=NC=C4 [AZD6738] (first compound max 10 µM, 7x7, partner max 10 µM) = 0.0036
CN(CCO)CC[C@H](CSc1ccccc1)Nc1ccc(S(=O)(=O)NC(=O)c2ccc(N3CCC([C@@H](O)c4ccccc4-c4ccc(Cl)cc4)CC3)cc2)cc1S(=O)(=O)C(F)(F)F [AZD4320] + C[C@@H]1COCCN1C2=NC(=NC(=C2)C3(CC3)[S@](=N)(=O)C)C4=C5C=CNC5=NC=C4 [AZD6738] (first compound max 1 µM, 7x7, partner max 10 µM) = -0.0276

So what does the record say about Bliss excess for C=CCn1c(=O)c2cnc(Nc3ccc(N4CCN(C)CC4)cc3)nc2n1-c1cccc(C(C)(C)O)n1 [AZD1775] + C1CN(CCC1(C(=O)N[C@@H](CCO)C2=CC=C(C=C2)Cl)N)C3=NC=NC4=C3C=CN4 [Capivasertib] (first compound max 3 µM, partner max 3 µM) ?
-0.0146

So what does the record say about Bliss excess for CN(C)CCCOc1ccc(-c2ccc3ncc4c(c3c2)n(C2CCOCC2)c(=O)n4C)cn1 [AZD0156] + O=C(c1cc(Cc2n[nH]c(=O)c3ccccc23)ccc1F)N1CCN(C(=O)C2CC2)CC1 [Olaparib] (first compound max 3 µM, partner max 3 µM) ?
0.171

----------
# Test system: U-2-OS (Osteosarcoma)
# protocol.description: Bliss excess, mean over the matrix (fraction); higher = more synergy
quantity.kind: Bliss excess
# answer = number (no unit)

Some molecules with recorded Bliss excess:
COc1cccc(OCCCN)c1-c1cc(Nc2cnc(C#N)cn2)n[nH]1 [Prexasertib] + Cc1cc2ncnn2cc1Nc1ncc2c(n1)n(C1CCOCC1)c(=O)n2C [AZD7648] (first compound max 1 µM, 7x7, partner max 10 µM) = -0.0223
Cn1cnc2c(F)c(Nc3ccc(Br)cc3Cl)c(C(=O)NOCCO)cc21 [Selumetinib] + C=CCn1c(=O)c2cnc(Nc3ccc(N4CCN(C)CC4)cc3)nc2n1-c1cccc(C(C)(C)O)n1 [AZD1775] (first compound max 10 µM, partner max 1 µM) = -0.0328
CCN(CCO)CCCOc1ccc2c(Nc3cc(CC(=O)Nc4cccc(F)c4)[nH]n3)ncnc2c1 [AZD2811] + C=CCn1c(=O)c2cnc(Nc3ccc(N4CCN(C)CC4)cc3)nc2n1-c1cccc(C(C)(C)O)n1 [AZD1775] (first compound max 1 µM, partner max 1 µM) = -0.0039
Cc1cc2ncnn2cc1Nc1ncc2c(n1)n(C1CCOCC1)c(=O)n2C [AZD7648] + C[C@@H]1COCCN1C2=NC(=NC(=C2)C3(CC3)[S@](=N)(=O)C)C4=C5C=CNC5=NC=C4 [AZD6738] (first compound max 10 µM, 7x7, partner max 10 µM) = 0.0173
C[C@@H](Oc1cc(-c2cnn(C3CCNCC3)c2)cnc1N)c1c(Cl)ccc(F)c1Cl [Crizotinib] + Cn1cnc2c(F)c(Nc3ccc(Br)cc3Cl)c(C(=O)NOCCO)cc21 [Selumetinib] (first compound max 10 µM, 7x7, partner max 10 µM) = 0.0015

So what does the record say about Bliss excess for CC(=O)c1c(C)c2cnc(Nc3ccc(N4CCNCC4)cn3)nc2n(C2CCCC2)c1=O [Palbociclib] + Cc1c2c(nn1C)CSCc1cc(n(C)n1)CSc1cc(c3ccccc3c1)OCCCc1c(C(=O)O)n(C)c3c-2c(Cl)ccc13 [AZD5991] (first compound max 10 µM, 7x7, partner max 1 µM) ?
-0.0224

So what does the record say about Bliss excess for O=C(c1cc(Cc2n[nH]c(=O)c3ccccc23)ccc1F)N1CCN(C(=O)C2CC2)CC1 [Olaparib] + Cc1c2c(nn1C)CSCc1cc(n(C)n1)CSc1cc(c3ccccc3c1)OCCCc1c(C(=O)O)n(C)c3c-2c(Cl)ccc13 [AZD5991] (first compound max 10 µM, 7x7, partner max 1 µM) ?
-0.0394

----------
# Test system: OS-RC-2 (Kidney Carcinoma)
# protocol.description: combination Emax (second highest fraction inhibited in the dose matrix, 72 h); higher = more inhibition; extreme values may be limits of the assay
Readings of combination Emax for the listed molecules
# answer = number (no unit)

CN(CCO)CC[C@H](CSc1ccccc1)Nc1ccc(S(=O)(=O)NC(=O)c2ccc(N3CCC([C@@H](O)c4ccccc4-c4ccc(Cl)cc4)CC3)cc2)cc1S(=O)(=O)C(F)(F)F [AZD4320] + Cc1cc2ncnn2cc1Nc1ncc2c(n1)n(C1CCOCC1)c(=O)n2C [AZD7648] (first compound max 1 µM, 7x7, partner max 10 µM) = 0.119
CN(CCO)CC[C@H](CSc1ccccc1)Nc1ccc(S(=O)(=O)NC(=O)c2ccc(N3CCC([C@@H](O)c4ccccc4-c4ccc(Cl)cc4)CC3)cc2)cc1S(=O)(=O)C(F)(F)F [AZD4320] + CCN(CCO)CCCOc1ccc2c(Nc3cc(CC(=O)Nc4cccc(F)c4)[nH]n3)ncnc2c1 [AZD2811] (first compound max 1 µM, 7x7, partner max 1 µM) = 0.159
COc1cccc(OCCCN)c1-c1cc(Nc2cnc(C#N)cn2)n[nH]1 [Prexasertib] + CCc1c2c(nc3ccc(O)cc13)-c1cc3c(c(=O)n1C2)COC(=O)[C@]3(O)CC [SN-38] (first compound max 1 µM, 7x7, partner max 0.3 µM) = 0.431

Lab note: need combination Emax with OS-RC-2 (Kidney Carcinoma) for entry Cc1cc2ncnn2cc1Nc1ncc2c(n1)n(C1CCOCC1)c(=O)n2C [AZD7648] + CN(C)CCCOc1ccc(-c2ccc3ncc4c(c3c2)n(C2CCOCC2)c(=O)n4C)cn1 [AZD0156] (first compound max 10 µM, 7x7, partner max 1 µM) , please look it up.
0.261

Lab note: need combination Emax with OS-RC-2 (Kidney Carcinoma) for entry CN(C)CCCOc1ccc(-c2ccc3ncc4c(c3c2)n(C2CCOCC2)c(=O)n4C)cn1 [AZD0156] + CCN(CCO)CCCOc1ccc2c(Nc3cc(CC(=O)Nc4cccc(F)c4)[nH]n3)ncnc2c1 [AZD2811] (first compound max 1 µM, 7x7, partner max 1 µM) , please look it up.
0.11

Lab note: need combination Emax with OS-RC-2 (Kidney Carcinoma) for entry CCc1c2c(nc3ccc(O)cc13)-c1cc3c(c(=O)n1C2)COC(=O)[C@]3(O)CC [SN-38] + CN(C)CCCOc1ccc(-c2ccc3ncc4c(c3c2)n(C2CCOCC2)c(=O)n4C)cn1 [AZD0156] (first compound max 0.3 µM, 7x7, partner max 1 µM) , please look it up.
0.443

Lab note: need combination Emax with OS-RC-2 (Kidney Carcinoma) for entry CN(C)CCCOc1ccc(-c2ccc3ncc4c(c3c2)n(C2CCOCC2)c(=O)n4C)cn1 [AZD0156] + C=CCn1c(=O)c2cnc(Nc3ccc(N4CCN(C)CC4)cc3)nc2n1-c1cccc(C(C)(C)O)n1 [AZD1775] (first compound max 1 µM, partner max 1 µM) , please look it up.
0.326

Lab note: need combination Emax with OS-RC-2 (Kidney Carcinoma) for entry NC1(C(=O)N[C@@H](CCO)c2ccc(Cl)cc2)CCN(c2ncnc3[nH]ccc23)CC1 [Capivasertib] + COc1nnc2ccc(N3CCC(c4ccc(OCCN5CCN(C)C(=O)[C@H]5C)cc4)CC3)nn12 [AZD5153] (first compound max 10 µM, 7x7, partner max 1 µM) , please look it up.
0.433

Lab note: need combination Emax with OS-RC-2 (Kidney Carcinoma) for entry Cc1c2c(nn1C)CSCc1cc(n(C)n1)CSc1cc(c3ccccc3c1)OCCCc1c(C(=O)O)n(C)c3c-2c(Cl)ccc13 [AZD5991] + CC1(C)CCC(CN2CCN(c3ccc(C(=O)NS(=O)(=O)c4ccc(NCC5CCOCC5)c([N+](=O)[O-])c4)c(Oc4cnc5[nH]ccc5c4)c3)CC2)=C(c2ccc(Cl)cc2)C1 [Venetoclax] (first compound max 1 µM, 7x7, partner max 1 µM) , please look it up.
0.133

Lab note: need combination Emax with OS-RC-2 (Kidney Carcinoma) for entry CC1(C)CCC(CN2CCN(c3ccc(C(=O)NS(=O)(=O)c4ccc(NCC5CCOCC5)c([N+](=O)[O-])c4)c(Oc4cnc5[nH]ccc5c4)c3)CC2)=C(c2ccc(Cl)cc2)C1 [Venetoclax] + COc1cc(Nc2ncc3c(n2)-c2ccc(Cl)cc2C(c2c(F)cccc2OC)=NC3)ccc1C(=O)O [Alisertib] (first compound max 1 µM, 7x7, partner max 10 µM) , please look it up.
0.319
